Origin of values: ChEMBL document CHEMBL1201861

tested on: RPMI-7951; test: cells; type: functional, cell-based; settings: Homo sapiens
Description: SANGER: Inhibition of human RPMI-7951 cell growth in a cell viability assay.
pIC50: −log10 of the molar value.
RESULT TYPE: pIC50

{"COMPOUND STRING": "C/C(O)=C(\\C#N)C(=O)Nc1cc(Br)ccc1Br", "pIC50": "< 4.80"}
{"COMPOUND STRING": "COc1cc(Nc2c(C#N)cnc3cc(OCCCN4CCN(C)CC4)c(OC)cc23)c(Cl)cc1Cl", "pIC50": "< 5.70"}

Now for another entry.
Return reported pIC50; argument: O=c1[nH]c2ccccc2n1C1CCN(Cc2ccc(-c3nc4cc5[nH]cnc5cc4nc3-c3ccccc3)cc2)CC1 < 5.59

* * *

test system: ES4; assay: cells; format: functional, cell-based; settings: Homo sapiens;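 also: growth inhibition of human ES4 cells, read out by a cell viability assay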
Description: SANGER: Inhibition of human ES4 cell growth in a cell viability assay.
pIC50: −log10 of the molar value.
Entries annotated with measured pIC50

{"COMPOUND STRING": "Cn1cc(/C=C2\\C(=O)Nc3cccnc32)c2ccccc21", "RESULT TYPE": "pIC50", "MEASURED RESULT": "< 5.70"}
{"COMPOUND STRING": "CCNc1cc(N[C@H]2CC[C@@H](O)CC2)nc(Nc2ccc3c(ccn3Cc3ccccc3)c2)n1", "RESULT TYPE": "pIC50", "MEASURED RESULT": "< 5.29"}

Now for another entry.
Return reported pIC50; argument: CCCS(=O)(=O)Nc1ccc(F)c(C(=O)c2c[nH]c3ncc(Cl)cc23)c1F < 5.00

* * *

system: CAL-27; test: cells; assay type: functional, cell-based; conditions: Homo sapiens;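 also: Viability-based readout, IC50 reflecting inhibition of CAL-27 cell growth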
Description: SANGER: Inhibition of human CAL-27 cell growth in a cell viability assay.
pIC50: −log10 of the molar value.
Entries annotated with measured pIC50

Reference set, count: 2
{"COMPOUND STRING": "C[C@]1(c2nc3c(C(N)=O)cccc3[nH]2)CCCN1", "RESULT TYPE": "pIC50", "MEASURED RESULT": "< 5.30"}
{"COMPOUND STRING": "Cn1cc(/C=C2\\C(=O)Nc3cccnc32)c2ccccc21", "RESULT TYPE": "pIC50", "MEASURED RESULT": "< 5.70"}

Now for another entry.
Return reported pIC50; argument: CCCS(=O)(=O)Nc1ccc(F)c(C(=O)c2c[nH]c3ncc(Cl)cc23)c1F < 5.00

* * *

test system: HuCCT-1; assay: cells; type: functional, cell-based, HuCCT1; conditions: Homo sapiens
Description: SANGER: Inhibition of human HuCCT1 cell growth in a cell viability assay.
pIC50: −log10 of the molar value.
Entries annotated with measured pIC50

{"COMPOUND": "O=c1[nH]c2ccccc2n1C1CCN(Cc2ccc(-c3nc4cc5[nH]cnc5cc4nc3-c3ccccc3)cc2)CC1", "pIC50": "< 5.59"}
{"COMPOUND": "COc1cc(Nc2c(C#N)cnc3cc(OCCCN4CCN(C)CC4)c(OC)cc23)c(Cl)cc1Cl [BOSUTINIB]", "pIC50": "< 5.70"}

Return reported pIC50; argument: Cn1cc(/C=C2\C(=O)Nc3cccnc32)c2ccccc21 < 5.70

* * *

tested on: DOK; test: cells; format: functional, cell-based; settings: Homo sapiens;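 also: cell viability assay read-out, values reflect inhibition of cell growth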
Description: SANGER: Inhibition of human DOK cell growth in a cell viability assay.
RESULT TYPE: IC50

Reference set, count: 2
{"COMPOUND": "CC(O)(CS(=O)(=O)c1ccc(F)cc1)C(=O)Nc1ccc(C#N)c(C(F)(F)F)c1 (stereo not drawn) [BICALUTAMIDE]", "SYSTEM": "DOK", "RESULT TYPE": "IC50", "MEASURED RESULT": "> 1020 nM"}
{"COMPOUND": "O=c1[nH]c2ccccc2n1C1CCN(Cc2ccc(-c3nc4cc5[nH]cnc5cc4nc3-c3ccccc3)cc2)CC1", "SYSTEM": "DOK", "RESULT TYPE": "IC50", "MEASURED RESULT": "> 2560 nM"}

Now for another entry.
Return reported IC50; argument: O=c1cc(N2CCOCC2)oc2c(-c3cccc4c3sc3ccccc34)cccc12 > 2000 nM

* * *

system: DB; assay: cells; assay type: functional, cell-based; conditions: Homo sapiens
Description: SANGER: Inhibition of human DB cell growth in a cell viability assay.
Entries annotated with measured IC50

Reference set, count: 3
{"MOLECULE": "CC(O)(CS(=O)(=O)c1ccc(F)cc1)C(=O)Nc1ccc(C#N)c(C(F)(F)F)c1 (centres undefined) [BICALUTAMIDE]", "RESULT TYPE": "IC50", "MEASURED RESULT": "> 1.02 µM"}
{"MOLECULE": "C/C(O)=C(\\C#N)C(=O)Nc1cc(Br)ccc1Br", "RESULT TYPE": "IC50", "MEASURED RESULT": "> 16 µM"}
{"MOLECULE": "CCCS(=O)(=O)Nc1ccc(F)c(C(=O)c2c[nH]c3ncc(Cl)cc23)c1F", "RESULT TYPE": "IC50", "MEASURED RESULT": "> 10 µM"}

Return reported IC50; argument: Cc1nc(Nc2ncc(C(=O)Nc3c(C)cccc3Cl)s2)cc(N2CCN(CCO)CC2)n1 > 1.28 µM

* * *

Entries annotated with measured IC50
system: NCI-H64; assay: cells; format: functional, cell-based; conditions: Homo sapiens;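 also: growth inhibition of NCI-H64 cells, read out with a cell viability assay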
Description: SANGER: Inhibition of human NCI-H64 cell growth in a cell viability assay.

Reference set, count: 2
{"COMPOUND": "Fc1cc(-c2cc[nH]/c(=N/c3ccc(-n4cnc(N5CCOCC5)n4)cc3)n2)cc(N2CCOCC2)c1", "MEASURED RESULT": "862 nM"}
{"COMPOUND": "N#C/C(=C1/Nc2ccccc2S1)c1ccnc(NCCc2cccnc2)n1", "MEASURED RESULT": "> 8000 nM"}

Return reported IC50; argument: CC(O)(CS(=O)(=O)c1ccc(F)cc1)C(=O)Nc1ccc(C#N)c(C(F)(F)F)c1 (centres undefined) [BICALUTAMIDE] > 1020 nM

Return reported IC50; argument: CCNC(=O)c1noc(-c2cc(C(C)C)c(O)cc2O)c1-c1ccc(CN2CCOCC2)cc1 > 256 nM

* * *

test system: HuTu80; assay: cells; format: functional, cell-based, HUTU-80; details: Homo sapiens;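 also: growth inhibition of HuTu80 human cells, determined with a cell viability readout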
Description: SANGER: Inhibition of human HUTU-80 cell growth in a cell viability assay.
RESULT TYPE: IC50

Reference set, count: 2
{"COMPOUND": "COc1cc(C)c(Sc2cnc(NC(=O)c3ccc(CNC(C)C(C)(C)C)cc3)s2)cc1C(=O)N1CCN(C(C)=O)CC1 (stereo not drawn)", "MEASURED RESULT": "> 10.2 µM"}
{"COMPOUND": "N#C/C(=C1/Nc2ccccc2S1)c1ccnc(NCCc2cccnc2)n1", "MEASURED RESULT": "> 8 µM"}

Return reported IC50; argument: O=c1[nH]c2ccccc2n1C1CCN(Cc2ccc(-c3nc4cc5[nH]cnc5cc4nc3-c3ccccc3)cc2)CC1 > 2.56 µM

* * *

system: MZ2-MEL; assay: cells; type: functional, cell-based; details: Homo sapiens
Description: SANGER: Inhibition of human MZ2-MEL cell growth in a cell viability assay.
pIC50: −log10 of the molar value.
Entries annotated with measured pIC50

Reference set, count: 5
{"COMPOUND STRING": "Cc1[nH]c(/C=C2\\C(=O)Nc3ccc(S(=O)(=O)Cc4c(Cl)cccc4Cl)cc32)c(C)c1C(=O)N1CCC[C@@H]1CN1CCCC1", "MEASURED RESULT": "< 5.70"}
{"COMPOUND STRING": "N#C/C(=C1/Nc2ccccc2S1)c1ccnc(NCCc2cccnc2)n1", "MEASURED RESULT": "< 5.10"}
{"COMPOUND STRING": "Cc1n[nH]c2ccc(-c3cncc(OC[C@@H](N)Cc4c[nH]c5ccccc45)c3)cc12", "MEASURED RESULT": "< 5.99"}
{"COMPOUND STRING": "C/C(O)=C(\\C#N)C(=O)Nc1cc(Br)ccc1Br", "MEASURED RESULT": "< 4.80"}
{"COMPOUND STRING": "COc1cc(Nc2c(C#N)cnc3cc(OCCCN4CCN(C)CC4)c(OC)cc23)c(Cl)cc1Cl", "MEASURED RESULT": "< 5.70"}

Return reported pIC50; argument: CCNc1cc(N[C@H]2CC[C@@H](O)CC2)nc(Nc2ccc3c(ccn3Cc3ccccc3)c2)n1 < 5.29

* * *

Entries annotated with measured pIC50
system: HH; test: cells; format: functional, cell-based; conditions: Homo sapiens
Description: SANGER: Inhibition of human HH cell growth in a cell viability assay.
pIC50: −log10 of the molar value.

{"COMPOUND STRING": "Cc1nc(Nc2ncc(C(=O)Nc3c(C)cccc3Cl)s2)cc(N2CCN(CCO)CC2)n1", "pIC50": "< 5.89"}
{"COMPOUND STRING": "C[C@]1(c2nc3c(C(N)=O)cccc3[nH]2)CCCN1", "pIC50": "< 5.30"}
{"COMPOUND STRING": "COc1cc(Nc2c(C#N)cnc3cc(OCCCN4CCN(C)CC4)c(OC)cc23)c(Cl)cc1Cl", "pIC50": "< 5.70"}

Now for another entry.
Return reported pIC50; argument: Cc1ccc(NC(=O)c2cccc(C(C)(C)C#N)c2)cc1Nc1ccc2ncn(C)c(=O)c2c1 < 5.40
